Reference for the values: patent US20250136606A1

- target_or_test_system: TRPML2 (Homo sapiens, UniProt Q8IZK6)
- Construct: expressed in transfected cells
- Sequence (Q8IZK6 whole entry): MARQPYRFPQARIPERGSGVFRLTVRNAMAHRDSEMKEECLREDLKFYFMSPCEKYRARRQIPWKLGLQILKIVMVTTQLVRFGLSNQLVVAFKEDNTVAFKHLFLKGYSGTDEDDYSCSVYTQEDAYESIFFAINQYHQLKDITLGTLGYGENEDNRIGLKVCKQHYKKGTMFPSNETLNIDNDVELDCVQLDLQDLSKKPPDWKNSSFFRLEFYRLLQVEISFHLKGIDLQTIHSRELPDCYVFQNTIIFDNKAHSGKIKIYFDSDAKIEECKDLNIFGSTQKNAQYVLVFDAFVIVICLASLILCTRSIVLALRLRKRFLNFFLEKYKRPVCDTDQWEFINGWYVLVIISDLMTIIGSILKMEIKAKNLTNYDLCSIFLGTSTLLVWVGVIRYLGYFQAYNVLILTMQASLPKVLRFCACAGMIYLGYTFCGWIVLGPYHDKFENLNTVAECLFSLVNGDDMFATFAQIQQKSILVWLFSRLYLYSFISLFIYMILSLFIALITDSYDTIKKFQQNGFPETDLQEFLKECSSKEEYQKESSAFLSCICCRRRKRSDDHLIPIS
- procedure_text: Fluorescent TRPML2 assay (performed as for TRPML1, substituting the TRPML2 subtype)
- Format: cell-based
- experimental_context: fluorescent calcium assay
Below is a list of entries, each paired with its recorded EC50 value.

Solved entries:
INSERT INTO measurements (compound, measured_attribute, result) VALUES
  ('C[C@@H]1CN(c2ncnc3c2c(N2CCC2)cn3-c2cc(C#N)ccn2)[C@@H](C)CN1C(=O)OC(C)(C)C [Compound 489]', 'EC50', '< 100 nM'),
  ('C[C@@H]1CN(c2ncnc3c2c(C2CC2)cn3-c2ccc(F)c(Cl)c2)CCN1C(=O)OC(C)(C)C [Compound 208]', 'EC50', '100 to 500 nM'),
  ('C[C@H]1CN(C(=O)OC(C)(C)C)CCN1c1ncnc2c1c(C1CC1)cn2C1CCC1 [Compound 398]', 'EC50', '100 to 500 nM');

input: GET EC50 | system: TRPML2 (Homo sapiens, UniProt Q8IZK6) | item: C[C@H]1CN(C(=O)OC(C)(C)C)CCN1c1ncnc2c1c(C1CC1)cn2-c1cc(F)ccn1 [Compound 453]
output: 100 to 500 nM
